Test: Terminal half life in human plasma at 40 mg administered as single dose
Format: ADME, cell-free
Details: read-out: beta t1/2 (converted)
reported.metric: half-life (min)
Kindly answer with a numeric value in min, unit omitted.

{"smiles.text": "Cc1ccc(CNC(=O)c2nn(-c3ccc(F)cc3)c(CC[C@@H](O)C[C@@H](O)CC(=O)O)c2C(C)C)cc1", "meas.value": 514}

Ask: Tell me the measured half-life of O=C([O-])C[C@H](O)C[C@H](O)CCn1c(-c2ccc(F)cc2)nc(C(=O)NCc2cccc(F)c2)c1C1CC1.[Na+] , please.
Result: 193

###

Assay: AUC (0 to infinity) in human plasma at 120 mg administered as single dose
Assay type: ADME, cell-free
Parameters: dose 120 mg, time infinity
reported.metric: AUC(0-inf) (ng·h/mL)
Write it as a number; the unit ng·h/mL goes unstated.

Ask: Given the entry O=C([O-])C[C@H](O)C[C@H](O)CCn1c(-c2ccc(F)cc2)nc(C(=O)NCc2cccc(F)c2)c1C1CC1.[Na+] , report its measured AUC(0-inf).
Result: 12.5

###

Catalogue of molecules with associated uptake ratio at 10 µM
Target: OATP1A4 (Rattus norvegicus)
Assay: Drug uptake by rat hepatic OATP1A4 transporters expressed in CHO cells at 10 uM relative to wild type CHO cells
Format: ADME, cell-based
Settings: CHO cells expressing rat OATP1A4, read-out: FC
Keep it simple and answer with nothing but the number.

Ask: Look up uptake ratio at 10 µM for this molecule: CC(C)c1nc(N(C)S(C)(=O)=O)nc(-c2ccc(F)cc2)c1/C=C/[C@@H](O)C[C@@H](O)CC(=O)O
Result: 17.3

Ask: Now consider CC[C@H](C)C(=O)O[C@H]1C[C@H](O)C=C2C=C[C@H](C)[C@H](CC[C@@H](O)C[C@@H](O)CC(=O)O)[C@H]21 .
Result: 1.8

Ask: Try Cc1ccc(CNC(=O)c2nn(-c3ccc(F)cc3)c(CC[C@@H](O)C[C@@H](O)CC(=O)O)c2C(C)C)cc1 next.
Result: 3

Ask: Next molecule: Cc1ncc2n1-c1ccc(Cl)cc1C(c1ccccc1F)=NC2
Result: 0.82

Ask: One more molecule: O=C([O-])C[C@H](O)C[C@H](O)CCn1c(-c2ccc(F)cc2)nc(C(=O)NCc2cccc(F)c2)c1C1CC1.[Na+]
Result: 7.3

###

Target: OATP1A4 (Rattus norvegicus)
Sequence (O35913 whole entry): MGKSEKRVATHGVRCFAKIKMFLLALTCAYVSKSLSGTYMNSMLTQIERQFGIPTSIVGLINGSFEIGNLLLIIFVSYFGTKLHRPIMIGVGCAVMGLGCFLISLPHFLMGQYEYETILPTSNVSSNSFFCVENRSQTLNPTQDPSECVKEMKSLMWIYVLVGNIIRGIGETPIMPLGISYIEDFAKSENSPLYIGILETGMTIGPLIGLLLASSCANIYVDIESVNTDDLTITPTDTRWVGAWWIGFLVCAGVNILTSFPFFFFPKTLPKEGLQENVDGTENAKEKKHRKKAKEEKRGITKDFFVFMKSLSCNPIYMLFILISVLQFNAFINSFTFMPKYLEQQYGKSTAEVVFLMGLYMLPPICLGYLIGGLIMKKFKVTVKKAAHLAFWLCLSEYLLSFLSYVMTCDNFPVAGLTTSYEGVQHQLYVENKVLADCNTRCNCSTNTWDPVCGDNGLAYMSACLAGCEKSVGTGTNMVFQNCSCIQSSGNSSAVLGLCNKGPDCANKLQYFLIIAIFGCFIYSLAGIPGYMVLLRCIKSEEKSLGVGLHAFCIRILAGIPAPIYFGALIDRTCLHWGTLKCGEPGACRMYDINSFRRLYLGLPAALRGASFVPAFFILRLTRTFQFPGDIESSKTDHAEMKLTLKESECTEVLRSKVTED
Assay: Drug uptake by rat hepatic OATP1A4 transporters expressed in CHO cells at 1 uM relative to wild type CHO cells
Type: ADME, cell-based
Conditions: CHO cells expressing rat OATP1A4, read-out: FC
Mark satisfied only for uptake ratio at 1 µM values smaller than 4; exact matches and larger values are not satisfied.

Observe how each entry below is paired with its result.
{"smiles.text": "CC(C)c1nc(N(C)S(C)(=O)=O)nc(-c2ccc(F)cc2)c1/C=C/[C@@H](O)C[C@@H](O)CC(=O)O", "group": "not satisfied"}
{"smiles.text": "O=C([O-])C[C@H](O)C[C@H](O)CCn1c(-c2ccc(F)cc2)nc(C(=O)NCc2cccc(F)c2)c1C1CC1.[Na+]", "group": "not satisfied"}
{"smiles.text": "Cc1ncc2n1-c1ccc(Cl)cc1C(c1ccccc1F)=NC2", "group": "satisfied"}

Ask: Regarding Cc1ccc(CNC(=O)c2nn(-c3ccc(F)cc3)c(CC[C@@H](O)C[C@@H](O)CC(=O)O)c2C(C)C)cc1 , kindly confirm whether its uptake ratio at 1 µM is beneath 4.
Result: satisfied

Ask: Let us now turn to CC[C@H](C)C(=O)O[C@H]1C[C@H](O)C=C2C=C[C@H](C)[C@H](CC[C@@H](O)C[C@@H](O)CC(=O)O)[C@H]21
Result: satisfied

###

System: Cavia porcellus
Assay: Hypolipidemic activity in chow fed Hartley guinea pig assessed as reduction of LDL level administered orally for 7 days measured on day 8 after 2 hrs post dose
Type: functional
Details: po
ED50 overview
Enter your answer as a number in mg/kg; do not include the unit.

{"compound": "CC[C@H](C)C(=O)O[C@H]1C[C@H](O)C=C2C=C[C@H](C)[C@H](CC[C@@H](O)C[C@@H](O)CC(=O)O)[C@H]21 [PRAVASTATIN]", "meas.value": 73.3}
{"compound": "CC(C)c1nc(N(C)S(C)(=O)=O)nc(-c2ccc(F)cc2)c1/C=C/[C@@H](O)C[C@@H](O)CC(=O)O [ROSUVASTATIN]", "meas.value": 13.5}
{"compound": "O=C([O-])C[C@H](O)C[C@H](O)CCn1c(-c2ccc(F)cc2)nc(C(=O)NCc2cccc(F)c2)c1C1CC1.[Na+]", "meas.value": 5.9}

We now examine a further compound.
Ask: API: value(readout= ED50, system= Cavia porcellus, query= Cc1ccc(CNC(=O)c2nn(-c3ccc(F)cc3)c(CC[C@@H](O)C[C@@H](O)CC(=O)O)c2C(C)C)cc1 )
Result: 3.6

###

Experiment: Volume of distribution at steady state in rat at 1 mg/kg, iv
Type: ADME, organism-based
Design: dose 1 mg/kg, route intravenous
Conditions: in vivo, read-out: Vdss
Listing of recorded Vd by entry.
Numbers only here, please. The scale is L/kg.

{"smiles.text": "Cc1ccc(CNC(=O)c2nn(-c3ccc(F)cc3)c(CC[C@@H](O)C[C@@H](O)CC(=O)O)c2C(C)C)cc1", "Vd / L/kg": 0.14}

Please find the next molecule below.
Ask: Data request, read-out Vd, for O=C([O-])C[C@H](O)C[C@H](O)CCn1c(-c2ccc(F)cc2)nc(C(=O)NCc2cccc(F)c2)c1C1CC1.[Na+]
Result: 0.17

###

Target: OATP1B2 (Rattus norvegicus, UniProt Q9QZX8)
Sequence (Q9QZX8 whole entry): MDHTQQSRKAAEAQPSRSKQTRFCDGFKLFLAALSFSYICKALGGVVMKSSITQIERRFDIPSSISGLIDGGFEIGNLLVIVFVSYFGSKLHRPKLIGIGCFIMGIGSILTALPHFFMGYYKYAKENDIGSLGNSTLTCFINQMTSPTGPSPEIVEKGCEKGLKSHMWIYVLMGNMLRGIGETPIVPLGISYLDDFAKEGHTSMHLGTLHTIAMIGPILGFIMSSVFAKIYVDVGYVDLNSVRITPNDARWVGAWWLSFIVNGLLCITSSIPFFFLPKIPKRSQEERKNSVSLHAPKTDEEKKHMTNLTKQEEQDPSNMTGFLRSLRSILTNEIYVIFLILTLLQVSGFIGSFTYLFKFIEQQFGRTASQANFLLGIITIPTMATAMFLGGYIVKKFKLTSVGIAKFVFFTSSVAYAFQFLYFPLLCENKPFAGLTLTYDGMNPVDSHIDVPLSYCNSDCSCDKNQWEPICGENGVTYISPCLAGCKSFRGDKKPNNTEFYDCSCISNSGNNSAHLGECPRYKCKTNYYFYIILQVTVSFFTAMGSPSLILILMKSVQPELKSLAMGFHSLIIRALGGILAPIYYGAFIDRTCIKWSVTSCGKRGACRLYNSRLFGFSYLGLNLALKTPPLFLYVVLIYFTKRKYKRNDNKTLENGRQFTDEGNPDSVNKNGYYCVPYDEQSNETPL
Assay: Drug uptake by rat hepatic OATP1B2 transporters expressed in CHO cells at 1 uM relative to wild type CHO cells
Assay type: ADME, cell-based
Settings: CHO cells expressing rat OATP1B2, read-out: FC
Recorded uptake ratio at 1 µM for the following molecules
// response body must contain only the number

Worked cases, answers included:
{"molecule": "CC[C@H](C)C(=O)O[C@H]1C[C@H](O)C=C2C=C[C@H](C)[C@H](CC[C@@H](O)C[C@@H](O)CC(=O)O)[C@H]21 [PRAVASTATIN]", "uptake ratio at 1 µM": 3.6}
{"molecule": "O=C([O-])C[C@H](O)C[C@H](O)CCn1c(-c2ccc(F)cc2)nc(C(=O)NCc2cccc(F)c2)c1C1CC1.[Na+]", "uptake ratio at 1 µM": 1.8}
{"molecule": "Cc1ccc(CNC(=O)c2nn(-c3ccc(F)cc3)c(CC[C@@H](O)C[C@@H](O)CC(=O)O)c2C(C)C)cc1", "uptake ratio at 1 µM": 2.9}

Now, please, on to the next molecule.
Ask: # uptake ratio at 1 µM lookup, item Cc1ncc2n1-c1ccc(Cl)cc1C(c1ccccc1F)=NC2 [MIDAZOLAM]
Result: 1.1

###

Assay: AUC (0 to infinity) in human plasma at 80 mg administered as single dose
Format: ADME, cell-free
Design: dose 80 mg, time infinity
reported.metric: AUC(0-inf) (ng·h/mL)
Report only the number, with the unit ng·h/mL understood.

Ask: What does the record list as AUC(0-inf) for Cc1ccc(CNC(=O)c2nn(-c3ccc(F)cc3)c(CC[C@@H](O)C[C@@H](O)CC(=O)O)c2C(C)C)cc1 ?
Result: 11800

###

Known IC50 of a selection of compounds
System: L6
Assay: Inhibition of cholesterol synthesis in rat L6 cells assessed as reduction of [14C]-cholesterol level using [14C]-acetic acid preincubated for 3 hrs before addition of [14C]-acetic acid by scintillation counting
Assay type: functional, cell-based
Please reply with the bare figure in nM and do not write the unit itself.

{"smiles.text": "Cc1ccc(CNC(=O)c2nc(-c3ccc(F)cc3)n(CC[C@@H](O)C[C@@H](O)CC(=O)[O-])c2C2CC2)cc1.[Na+]", "IC50 / nM": 178}
{"smiles.text": "COc1ccc(CNC(=O)c2nc(-c3ccc(F)cc3)n(CC[C@@H](O)C[C@@H](O)CC(=O)[O-])c2C2CC2)cc1F.[Na+]", "IC50 / nM": 890}
{"smiles.text": "COc1ccccc1CNC(=O)c1nc(-c2ccc(F)cc2)n(CC[C@@H](O)C[C@@H](O)CC(=O)[O-])c1C1CC1.[Na+]", "IC50 / nM": 10700}

Ask: Quick one: IC50 for O=C([O-])C[C@H](O)C[C@H](O)CCn1c(-c2ccc(F)cc2)nc(C(=O)NCc2ccc(F)c(F)c2)c1C1CC1.[Na+] ?
Result: 2780

Ask: # repeat for Cc1ccccc1CNC(=O)c1nc(-c2ccc(F)cc2)n(CC[C@@H](O)C[C@@H](O)CC(=O)[O-])c1C1CC1.[Na+]
Result: 4850

Every entry's value here was drawn from ChEMBL document CHEMBL1781963.
